Where do the numbers come from? From paper PMC10458312.

- testDescription: MTT cytotoxicity assay against C8166 cells
- Type: cell-based
- conditionNotes: human
propertyMeasured: CC50 at 3 days (mM)

• Cc1cn([C@H]2C[C@H](N=[N+]=[N-])[C@@H](CO)O2)c(=O)[nH]c1=O [AZT, 3′-azido-3′-deoxythymidine, reference compound] = 4.02

====

# Lookup of reported TI (therapeutic index) = CC50/EC50 keyed by entry
- Tested on: HIV-1IIIB
- testDescription: Inhibition assay for the cytopathic effects of HIV-1 (syncytia formation) in C8166 cells
- conditionNotes: CC50 in C8166 / EC50 against HIV-1
propertyMeasured: TI (therapeutic index) = CC50/EC50

• C[C@@H]1Oc2cc(O)c3c(=O)c4cc(O)c(O)c(O)c4oc3c2C1(C)C [Compound 7, 2-deprenyl-7-hydroxy-rheediaxanthone] = >48.08
• COc1ccc2c(=O)c3cc(O)c(OC)c(O)c3oc2c1OC = >49.14
• C=C(C)C(O)CCC(C)=CCc1c(O)c(CC=C(C)C)c(O)c2c(=O)c3cc(O)ccc3oc12 (stereo not drawn) = >909.09
• COc1cc(O)c2c(=O)c3c(OC)c(OC)c(O)cc3oc2c1 = >74.91
• COc1cc2oc3c(O)ccc(OC)c3c(=O)c2c(O)c1OC = >17.81
• COc1ccc2c(=O)c3c(OC)c(OC)c(O)cc3oc2c1O = >105.82
• COc1c(O)cc2oc3ccc(O)c(OC)c3c(=O)c2c1OC = >37.59
• CC(C)=CCC/C(C)=C/Cc1c(O)c(CC=C(C)C)c(O)c2c(=O)c3c(O)ccc(O)c3oc12 = >79.05
• CC1(C)c2c(cc(O)c3c(=O)c4ccc(O)c(O)c4oc23)O[C@H]1CO = >64.94
